Target: human μ-opiate receptor (Homo sapiens, UniProt P35372)
Construct: purchased Perkin Elmer, Zaventem, Belgium RB-HOM; host or cells: CHO-K1 cells
Sequence (P35372 whole entry): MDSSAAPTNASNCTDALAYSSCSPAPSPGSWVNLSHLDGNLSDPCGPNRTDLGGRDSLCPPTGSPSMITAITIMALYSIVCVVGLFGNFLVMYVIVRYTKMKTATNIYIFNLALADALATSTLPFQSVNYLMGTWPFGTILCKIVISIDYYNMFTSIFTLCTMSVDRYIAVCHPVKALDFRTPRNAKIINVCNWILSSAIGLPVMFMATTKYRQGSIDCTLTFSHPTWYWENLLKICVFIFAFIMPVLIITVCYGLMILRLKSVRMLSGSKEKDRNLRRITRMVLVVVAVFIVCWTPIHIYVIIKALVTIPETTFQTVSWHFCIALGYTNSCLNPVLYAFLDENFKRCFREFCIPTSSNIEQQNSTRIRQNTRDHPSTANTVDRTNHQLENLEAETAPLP
Assay: Affinity for the human μ-opiate receptor, [3H]-naloxone displacement (SPA) on CHO-K1 receptor membrane preparation
Format: binding
Conditions: 1.5 h, read-out: μ-Opioid receptor affinity (% inhibition at 1 μmol./l), 1 μmol./l test substance; inhibition of specific [3H]-naloxone binding
Description: The receptor affinity for the human μ-opiate receptor was determined in a homogeneous batch on microtitre plates. […] When the ninety-minute incubation time was complete, the microtitre plates were centrifuged off for 20 minutes at 1000 g and the radioactivity was measured in a β-counter (Microbeta-Trilux, PerkinElmer, Freiburg, Germany). […]
Observation type: inhibition at 1 µM (%)
Note: unit % is implicit; provide only the numeric part.

INSERT INTO measurements (molecule, value_observed) VALUES
  ('CN(C)CC1CCOc2ccccc2C1(O)c1cccnc1 (stereo not drawn)', 45),
  ('CN(C)CC1Cc2cc(C(F)(F)F)ccc2C1(O)c1cccnc1 (stereo not drawn)', 2);

Lab note: next molecule to report on.
Query block: Please look up its inhibition at 1 µM: "CN(C)CC1=C(c2cccnc2)c2ccccc2OCC1"
Result block: 37
